meta.source: paper PMC10397247

# ASSAYED_TARGET: T1, 4H2839-bA
# T1 chain: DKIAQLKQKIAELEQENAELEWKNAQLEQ
# TEST_PROTOCOL: two-hybrid library CCNG1;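 note: natural log of median RNA to DNA barcode read ratio; higher means stronger binding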
PROPERTY_NAME: interaction score
Give a plain numeric answer without units written out.

{"BINDER": "DKIAQLKQENAELEQENAELKWKIAQLEQ [4H2717-bA]", "interaction score": -0.857}
{"BINDER": "DKIAQLEQENAELEQKIAELKWKNAQLEQ [4H2223-bA]", "interaction score": -0.368}

Tell me the measured interaction score of DKIAQLEQKNAELKQEIAELEWKNAQLEQ [4H2503-bA] , please.
-0.791

Tell me the measured interaction score of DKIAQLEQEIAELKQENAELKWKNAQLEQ [4H2143-bA] , please.
0.951
